Protocol: Tissue distribution of PZ-DHA and metabolites after intraperitoneal injection
Type: in vivo, Balb/c female mice
Test parameters: female, Balb/c, mouse, lungs/serum, intraperitoneal, 100 mg/kg; 60 min; read-out: Tissue/serum ratio of PZ-DHA (Mean ± SD) Lungs/serum
Recorded endpoint: Kp at 60 min
Please give the numeric answer without any surrounding text.

Entry CC/C=C\C/C=C\C/C=C\C/C=C\C/C=C\C/C=C\CCC(=O)OC[C@H]1O[C@@H](Oc2cc(O)cc(O)c2C(=O)CCc2ccc(O)cc2)[C@H](O)[C@@H](O)[C@@H]1O [PZ-DHA, phloridzin docosahexaenoate] ; Kp at 60 min = 1.05

###

Protocol: Serum pharmacokinetics after intraperitoneal injection
Assay type: in vivo, Balb/c female mice
Test parameters: 100 mg/kg intraperitoneal, serum; read-out: Maximum serum concentration (Cmax)
Recorded endpoint: Cmax (µM)
Numbers only here, please. The scale is µM.

Entry CC/C=C\C/C=C\C/C=C\C/C=C\C/C=C\C/C=C\CCC(=O)OC[C@H]1O[C@@H](Oc2cc(O)cc(O)c2C(=O)CCc2ccc(O)cc2)[C@H](O)[C@@H](O)[C@@H]1O [PZ-DHA, phloridzin docosahexaenoate] ; Cmax = 23.4

###

Protocol: In vitro phase I metabolism with mouse hepatic microsomes and NADPH
Assay type: in vitro ADME
Test parameters: PZ-DHA 1.1 µM, 100 mM NADPH, 1 h, 37 °C
Recorded endpoint: phase I metabolite of PZ-DHA identified

O=C(CCc1ccc(O)cc1)c1c(O)cc(O)cc1O[C@@H]1O[C@H](CO)[C@@H](O)[C@H](O)[C@H]1O: identified
O=C(CCc1ccc(O)c(O)c1)c1c(O)cc(O)cc1O[C@@H]1O[C@H](CO)[C@@H](O)[C@H](O)[C@H]1O [3-hydroxy-phloridzin]: identified
CC/C=C\C/C=C\C/C=C\C/C=C\C/C=C\C/C=C\CCC(=O)OC[C@H]1O[C@@H](Oc2cc(O)cc(O)c2C(=O)CCc2ccc(O)c(O)c2)[C@H](O)[C@@H](O)[C@@H]1O [3-hydroxy-phloridzin docosahexaenoate]: identified
CC/C=C\C/C=C\C/C=C\C/C=C\C/C=C\C/C=C\CCC(=O)O [DHA, docosahexaenoic acid, reference compound]: identified

###

Protocol: Tissue distribution of PZ-DHA and metabolites after intraperitoneal injection
Assay type: in vivo, Balb/c female mice
Test parameters: female, Balb/c, mouse, liver/serum, intraperitoneal, 100 mg/kg; 15 min; read-out: Tissue/serum ratio of PZ-DHA (Mean ± SD) Liver/serum
Recorded endpoint: Kp at 15 min
Please give the numeric answer without any surrounding text.

Entry CC/C=C\C/C=C\C/C=C\C/C=C\C/C=C\C/C=C\CCC(=O)OC[C@H]1O[C@@H](Oc2cc(O)cc(O)c2C(=O)CCc2ccc(O)cc2)[C@H](O)[C@@H](O)[C@@H]1O [PZ-DHA, phloridzin docosahexaenoate] ; Kp at 15 min = 0.14

###

Protocol: Tissue distribution of PZ-DHA and metabolites after intraperitoneal injection
Assay type: in vivo, Balb/c female mice
Test parameters: female, Balb/c, mouse, lungs/serum, intraperitoneal, 100 mg/kg; 240 min; read-out: Tissue/serum ratio of PZ-DHA (Mean ± SD) Lungs/serum
Recorded endpoint: Kp at 240 min
Please give the numeric answer without any surrounding text.

Entry CC/C=C\C/C=C\C/C=C\C/C=C\C/C=C\C/C=C\CCC(=O)OC[C@H]1O[C@@H](Oc2cc(O)cc(O)c2C(=O)CCc2ccc(O)cc2)[C@H](O)[C@@H](O)[C@@H]1O [PZ-DHA, phloridzin docosahexaenoate] ; Kp at 240 min = 4.97
